Where do the numbers come from? From patent US6638973B2.

# System: HCT116 cells
# assay_overview: In vitro cytotoxicity measured by the cell colony formation assay
# Type: cell-based
# experimental_conditions: HCT116 cells, 72 h drug incubation, colonies counted after 7 days; ID50 = drug concentration producing 50% inhibition of colony formation; read-out: IN VITRO ID 50 (nm) HCT116
pIC50: −log10 of the molar value.
Listed below: pIC50 values for each entry.

Solved cases (6 shown):
{"compound": "CCNC(=O)O[C@H]1C[C@H]2OC[C@@]2(OC(C)=O)C2[C@H](OC(=O)c3ccccc3)[C@]3(O)C[C@H](OC(=O)[C@H](O)[C@@H](NC(=O)OC(C)(C)C)c4ccco4)C(C)=C([C@@H](O)C(=O)[C@@]21C)C3(C)C (stereo partly drawn) [Compound 6696]", "result": "> 9.00"}
{"compound": "C/C=C/C(=O)N[C@@H](c1ccco1)[C@@H](O)C(=O)O[C@H]1C[C@@]2(O)[C@@H](OC(=O)c3ccccc3)C3[C@](C)(C(=O)[C@H](O)C(=C1C)C2(C)C)[C@@H](OC(=O)NCC)C[C@H]1OC[C@@]31OC(C)=O (stereo partly drawn)", "result": "> 8.00"}
{"compound": "C/C=C/C(=O)N[C@@H](c1ccco1)[C@@H](O)C(=O)O[C@H]1C[C@@]2(O)[C@@H](OC(=O)c3ccccc3)C3[C@](C)(C(=O)[C@H](O)C(=C1C)C2(C)C)[C@@H](OC(=O)NC1CCCCC1)C[C@H]1OC[C@@]31OC(C)=O (stereo partly drawn)", "result": "> 9.00"}
{"compound": "CC=CC(=O)NC(c1ccco1)C(O)C(=O)OC1CC2(O)C(OC(=O)c3ccccc3)C3C4(OC(C)=O)COC4CC(OC(=O)Nc4ccc(F)c(F)c4)C3(C)C(=O)C(O)C(=C1C)C2(C)C (stereo not drawn)", "result": "> 8.00"}
{"compound": "CC(=O)O[C@@]12CO[C@@H]1C[C@H](OC(=O)Nc1ccc(F)c(F)c1)[C@@]1(C)C(=O)[C@H](O)C3=C(C)[C@@H](OC(=O)[C@H](O)[C@@H](NC(=O)C=C(C)C)c4ccco4)C[C@@](O)([C@@H](OC(=O)c4ccccc4)C12)C3(C)C (stereo partly drawn)", "result": "> 9.00"}
{"compound": "CC(=O)O[C@@]12CO[C@@H]1C[C@H](OC(=O)Nc1ccccc1)[C@@]1(C)C(=O)[C@H](O)C3=C(C)[C@@H](OC(=O)[C@H](O)[C@@H](NC(=O)C=C(C)C)c4ccco4)C[C@@](O)([C@@H](OC(=O)c4ccccc4)C12)C3(C)C (stereo partly drawn)", "result": "> 9.00"}

IN: Entry CCC(C)(C)OC(=O)N[C@@H](c1ccco1)[C@@H](O)C(=O)O[C@H]1C[C@@]2(O)[C@@H](OC(=O)c3ccccc3)C3[C@](C)(C(=O)[C@H](O)C(=C1C)C2(C)C)[C@@H](OC(=O)Nc1ccc(F)c(F)c1)C[C@H]1OC[C@@]31OC(C)=O (stereo partly drawn) : reported pIC50 = ?
OUT: > 8.00

IN: Form field: reported pIC50 of CC(=O)O[C@@]12CO[C@@H]1C[C@H](OC(=O)NC(C)(C)C)[C@@]1(C)C(=O)[C@H](O)C3=C(C)[C@@H](OC(=O)[C@H](O)[C@@H](NC(=O)OC(C)(C)C)c4ccco4)C[C@@](O)([C@@H](OC(=O)c4ccccc4)C12)C3(C)C (stereo partly drawn)
OUT: > 8.00

IN: Quick one: pIC50 for CC(=O)O[C@@]12CO[C@@H]1C[C@H](OC(=O)Nc1ccc(F)c(F)c1)[C@@]1(C)C(=O)[C@H](O)C3=C(C)[C@@H](OC(=O)[C@H](O)[C@@H](NC(=O)OC(C)(C)C)c4ccco4)C[C@@](O)([C@@H](OC(=O)c4ccccc4)C12)C3(C)C (stereo partly drawn) ?
OUT: > 9.00
